Molecular target: F508delCFTR (Homo sapiens, UniProt P13569, DEL508-508)
Construct: expressed in transfected cells; host or cells: CFBE41o- human lung-derived epithelial cells (CFBE4lo-F508delCFTR-HRP), doxycycline-inducible
Sequence (P13569 with tags, fused parts or gaps DEL508-508): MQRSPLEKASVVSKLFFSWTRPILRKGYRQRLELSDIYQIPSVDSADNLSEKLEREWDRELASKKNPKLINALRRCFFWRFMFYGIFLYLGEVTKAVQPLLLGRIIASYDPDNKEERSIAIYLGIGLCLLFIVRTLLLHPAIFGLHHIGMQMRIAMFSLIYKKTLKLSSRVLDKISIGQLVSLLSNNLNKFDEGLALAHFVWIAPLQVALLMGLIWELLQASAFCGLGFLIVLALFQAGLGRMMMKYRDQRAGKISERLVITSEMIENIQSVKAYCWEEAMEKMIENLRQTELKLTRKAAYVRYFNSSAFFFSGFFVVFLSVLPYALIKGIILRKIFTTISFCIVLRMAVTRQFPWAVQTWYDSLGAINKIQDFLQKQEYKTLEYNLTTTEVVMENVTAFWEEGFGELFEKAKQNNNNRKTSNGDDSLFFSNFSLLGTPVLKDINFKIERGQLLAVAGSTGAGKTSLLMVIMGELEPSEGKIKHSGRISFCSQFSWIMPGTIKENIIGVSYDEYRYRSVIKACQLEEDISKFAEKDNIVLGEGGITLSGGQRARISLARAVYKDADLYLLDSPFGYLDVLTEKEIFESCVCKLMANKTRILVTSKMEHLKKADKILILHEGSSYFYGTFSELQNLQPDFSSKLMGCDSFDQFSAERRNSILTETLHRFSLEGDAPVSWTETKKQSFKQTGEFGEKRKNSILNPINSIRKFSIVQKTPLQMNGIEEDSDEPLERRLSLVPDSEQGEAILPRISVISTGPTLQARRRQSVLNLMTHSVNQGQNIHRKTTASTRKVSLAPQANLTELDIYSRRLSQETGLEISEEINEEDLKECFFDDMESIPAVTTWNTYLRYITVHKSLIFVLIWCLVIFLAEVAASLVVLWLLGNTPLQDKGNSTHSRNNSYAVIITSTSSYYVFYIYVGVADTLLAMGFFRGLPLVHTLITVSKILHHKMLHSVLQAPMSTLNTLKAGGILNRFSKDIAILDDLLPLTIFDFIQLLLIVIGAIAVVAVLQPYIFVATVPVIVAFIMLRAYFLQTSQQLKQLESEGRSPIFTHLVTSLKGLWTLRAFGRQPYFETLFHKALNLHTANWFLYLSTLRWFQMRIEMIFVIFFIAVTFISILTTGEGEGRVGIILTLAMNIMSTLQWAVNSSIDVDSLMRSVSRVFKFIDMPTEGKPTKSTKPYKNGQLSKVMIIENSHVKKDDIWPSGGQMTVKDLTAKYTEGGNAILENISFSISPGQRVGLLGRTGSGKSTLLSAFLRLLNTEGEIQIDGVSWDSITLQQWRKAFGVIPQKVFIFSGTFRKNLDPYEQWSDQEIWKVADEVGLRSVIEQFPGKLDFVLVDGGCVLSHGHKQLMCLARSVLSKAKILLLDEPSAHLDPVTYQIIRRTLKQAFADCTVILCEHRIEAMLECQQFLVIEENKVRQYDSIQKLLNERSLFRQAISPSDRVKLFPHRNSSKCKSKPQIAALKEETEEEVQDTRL
Assay: Cell Surface Expression-Horse Radish Peroxidase (CSE-HRP) Assay;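 further: percent of the 2 µM on-plate positive control corrector response above DMSO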
Format: cell-based
Conditions: without co-corrector; maximum at any tested concentration, normalized to on-plate positive control; read-out: Maximum % activity (without co-corrector)
Method: Cell Surface Expression-Horse Radish Peroxidase (CSE-HRP) Assay The development was achieved by expressing the F508delCFTR mutation along with a horseradish peroxidase (HRP) in the fourth exofacial loop, and then measuring the HRP activity using luminescence readout from these cells, CFBE4lo-F508delCFTR-HRP, that were incubated overnight with the test corrector compounds, either without or with the co-corrector. […] The raw counts from the experiment were analyzed using Accelrys® Assay Explorer v3.3. […]
RECORDED_ENDPOINT: Emax

COMPOUND | REPORTED_RESULT
COc1ccc(C(C)(C)C)cc1CN[C@H]1[C@H](C(C)(C)C)[C@@H](C(=O)O)N(C(=O)[C@H](C)c2ccccc2)[C@H]1c1cccnc1OC [Example I-239] | 100 to 200%
COc1ccc(C(F)(F)F)cc1CN[C@H]1[C@H](C(C)(C)C)[C@@H](C(=O)O)N(C(=O)C2CCC(C)(C)O2)[C@H]1c1ccccc1 (stereo partly drawn) [Example I-164] | > 200%
COc1ccc(C2CC3CCC2C3)cc1CN[C@H]1[C@H](C(C)(C)OC)[C@@H](C(=O)O)N(C(=O)C2CCCCC2)[C@H]1c1ccccc1 (stereo partly drawn) [Example I-117] | > 200%
COc1ccc(C(F)(F)F)cc1CN[C@H]1[C@H](C(C)(C)C)[C@@H](C(=O)O)N(C(=O)[C@H](OC)c2ccccc2)[C@H]1c1ccccc1 [Example I-20] | > 200%
COc1ccc(CC(C)C)cc1CN[C@H]1[C@H](C(C)(C)C)[C@@H](C(=O)O)N(C(=O)C2CCCCC2)[C@H]1c1ccccc1 [Example I-94] | > 200%
COc1ccc(C(C)(C)C)cc1CN[C@H]1[C@H](C(C)(C)OC)[C@@H](C(=O)O)N(C(=O)OC(C)C)[C@H]1c1cccnc1N(C)C [Example I-220] | > 200%
COc1ccc(C(C)(C)C)cc1CN[C@H]1[C@H](C(C)(C)C)[C@@H](C(=O)O)N(C(=O)OC(C)C)[C@H]1c1cccnc1OC(F)F [Example I-227] | 100 to 200%
COc1ccc(C(C)(C)C)cc1CN[C@H]1[C@H](C(C)(C)C)[C@@H](C(=O)O)N(C(=O)c2ccc3c(c2)OCCO3)[C@H]1c1cccnc1N(C)C [Example I-199] | 100 to 200%
COc1ccc(C2(C(F)(F)F)CC2)cc1CN[C@H]1[C@H](C(C)(C)C)[C@@H](C(=O)O)N(C(=O)C2CCCCC2)[C@H]1c1ccccc1 [Example 33] | > 200%
COc1ncc(C(F)(F)F)cc1CN[C@H]1[C@H](C(C)(C)C)[C@@H](C(=O)O)N(C(=O)C2CCCCC2)[C@H]1c1cccnc1N(C)C [Example I-120] | 100 to 200%
COc1ncc(C2CCC2)cc1CN[C@H]1[C@H](C(C)(C)C)[C@@H](C(=O)O)N(C(=O)[C@@H]2CCCCO2)[C@H]1c1ccccc1C(C)C [Example 73] | > 200%
CCOC(=O)N1[C@H](C(=O)O)[C@@H](C(C)(C)C)[C@H](NCc2cc(C(F)(F)F)cnc2OC)[C@@H]1c1ccccc1C(C)C [Example 97] | > 200%
